# EXPERIMENTAL SYSTEM: IR-B (Homo sapiens, UniProt P06213)
# ASSAY REMARKS: In vitro activity of pegylated analogs relative to native insulin at IR-B
Bridges are numbered along the chain shown (N, C = ends). Where no end group is shown, it is not given here.
List of % Insulin Activity IR-B values.
Report as a plain number; the unit % is understood.

INSERT INTO measurements (substance, experimental_system, measurement_name, value_reported) VALUES
  ('B^1(H5,Y16,L17)25-C^1(K8)-A^1(K14, N18,21) (GPEHLCGAELVDALYLVCGDRGFYGYGSSSRKAPQTGIVDECCFRSCDLKRLENYCN) [MIU-69, two 10K PEG chains, at the N-terminus and at amino acid A14]', 'IR-B (Homo sapiens, UniProt P06213)', '% Insulin Activity IR-B', 0.5),
  ('B^1(H5, H10, Y16, L17)25-C^1-A^1 (H8, N18, N21) (GPEHLCGAHLVDALYLVCGDRGFYGYGSSSRRAPQTGIVDECCHRSCDLRRLENYCN) [MIU-35]', 'IR-B (Homo sapiens, UniProt P06213)', '% Insulin Activity IR-B', 17.4),
  ('MIU-58: dimer of two single chain analogs B1(H5,Y16,L17)25-C1-A1(N18,21) linked head to head via 20 kDa PEG (GPEHLCGAELVDALYLVCGDRGFYGYGSSSRRAPQTGIVDECCFRSCDLRRLENYCN; disulfide 18-56, 42-47, 6-43; also: dimer of two chains joined head to head (B1 N-termini) via 20 kDa PEG)', 'IR-B (Homo sapiens, UniProt P06213)', '% Insulin Activity IR-B', 5.8);

Let us examine a further case.
Ask: Param item = B^1(H5,Y16,L17)25-C^1-A^1(N18,21) (GPEHLCGAELVDALYLVCGDRGFYGYGSSSRRAPQTGIVDECCFRSCDLRRLENYCN) [MIU-57, single chain analog with 20 kDa PEG linked to the N-terminus of the B chain] ; retrieve measured % Insulin Activity IR-B.
Result: 1.1
